Where these numbers come from: patent US20260234276A1

# study.system: CCR8 SNAP-tag (human, UniProt P51685 1-355, SNAP-tag labelled with Lumi4-Terbium)
# assay.protocol: cell-based or functional assay
measured.property: % of internalization at 10 µg/ml mAb (HTRF) (%)
Give bare numbers, in %.

For every item below, please supply its % of internalization at 10 µg/ml mAb (HTRF).
1. Ref #3 (antibody, human IgG1, V domains shown) VH: QVQLVQSGAEVKKPGASVKVSCKASGYTFTSYYMHWVRQAPGQGLEWMGIINPSGGSTSYAQKFQGRVTMTRDTSTSTVYMELSSLRSEDTAVYYCARAVRNRFRFDYWGQGTLVTVSS VL: QSALTQPASVSGSPGQSITISCTGTSSDVGSYNLVSWYQQHPGKAPKLMIYEVSKRPSGVSNRFSGSKSGNTASLTISGLQAEDEADYYCSSYAGSSTFVVFGGGTKLTVL
2. Ref #1 (antibody, human IgG1, V domains shown, benchmark from WO 2021/260210; human IgG1, produced in CHO; also called TPP-21360) VH: EVQLLESGGGLVQPGGSLRLSCAASGFTFSSYGMHWVRQAPGKGLEWVSAINWNGGSTGYADSVKGRFTISRDNSKNTLYLQMNSLRAEDTAVYYCARGHHSGYDGRFFDYWGQGTLVTVSS VL: QSVLTQPPSVSGAPGQRVTISCTGSSSNIGAGYNVHWYQQLPGTAPKLLIYTNNRRPSGVPDRFSGSKSGTSASLAISGLRSEDEADYYCAAWDASLSGWVFGGGTKLTVL
3. 3-80 (antibody, human IgG1, kappa, V domains shown, humanized, human IgG1 kappa) VH: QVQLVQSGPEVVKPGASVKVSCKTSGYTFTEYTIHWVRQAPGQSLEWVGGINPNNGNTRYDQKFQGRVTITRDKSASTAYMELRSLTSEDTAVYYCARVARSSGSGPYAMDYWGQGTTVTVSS VL: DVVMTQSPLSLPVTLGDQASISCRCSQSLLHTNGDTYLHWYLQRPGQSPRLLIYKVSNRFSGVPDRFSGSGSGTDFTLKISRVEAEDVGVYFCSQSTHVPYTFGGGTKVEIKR

1. 90
2. 111
3. 29

For every item below, please supply its % of internalization at 10 µg/ml mAb (HTRF).
1. Ref #4 (antibody, human IgG1, V domains shown) VH: EVQLVESGGGLVQPGGSLKLSCAASGFTFNTYAMNWVRQASGKGLEWVARIRSKANNYATYYADSVKDRFTISRDDSKNTLYLQMNNLKTEDTAVYYCVRDRSRGEDYAMDYWGQGTLVTVSS VL: DIVMTQSPLSLPVTPGEPASISCRSSKSLLHSNANTYLYWFLQKPGQSPQLLIYRMSNLASGVPDRFSGSGSGTAFTLKISRVEAEDVGVYYCMQHLEYPFTFGQGTKLEIK
2. 3-81 (antibody, human IgG1, kappa, V domains shown, humanized, human IgG1 kappa) VH: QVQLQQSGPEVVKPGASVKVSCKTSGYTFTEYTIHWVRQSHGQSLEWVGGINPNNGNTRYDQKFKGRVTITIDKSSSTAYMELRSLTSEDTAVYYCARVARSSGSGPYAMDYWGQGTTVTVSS VL: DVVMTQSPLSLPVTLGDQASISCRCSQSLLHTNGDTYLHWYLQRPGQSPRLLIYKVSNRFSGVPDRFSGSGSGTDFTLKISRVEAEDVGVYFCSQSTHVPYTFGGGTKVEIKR
3. 3-79 (antibody, human IgG1, kappa, V domains shown, humanized, human IgG1 kappa) VH: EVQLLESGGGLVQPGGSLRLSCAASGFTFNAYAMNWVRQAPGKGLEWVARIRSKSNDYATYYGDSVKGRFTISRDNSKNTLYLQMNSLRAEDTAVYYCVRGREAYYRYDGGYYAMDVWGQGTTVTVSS VL: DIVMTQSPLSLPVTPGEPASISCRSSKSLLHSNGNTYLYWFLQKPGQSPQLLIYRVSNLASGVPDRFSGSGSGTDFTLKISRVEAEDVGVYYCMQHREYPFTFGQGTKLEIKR

[103, 36, 52]
